experiment: MTT cytotoxicity assay, 3T3 cells; assay type: cell-based, mouse; conditions: mouse, 3T3 mouse embryo fibroblasts, 3T3; 10 000 b/j; koncentrace 10 nM; individual experiments; read-out: MTT viability (0 = 100)
Quantity Name: viability at 72 h, 10 nM
Your answer should be a number followed by the unit of measure.

Name the recorded viability at 72 h, 10 nM for "CCNC(=S)NN=C(c1ccccc1)c1ccccn1" .
93.7%

====

system: caspase 8; experiment: Caspase activity, luminescent kit, caspase 8; type: cell-based, human; settings: 24 hodin; mean, normalised to viability;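 also: MCF-7 cells treated at 100 nM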
In this section we review reported kaspáza 8, % kontroly values for a set of compounds.
Number in % kontroly, nothing else.

Known results for compounds:
| Compound | Output Unit | kaspáza 8, % kontroly |
| --- | --- | --- |
| CCNC(=O)NN=C(c1ccccc1)c1ccccn1 [Z-Bp4eS, 2-benzoylpyridine 4-ethylsemicarbazone] | % kontroly | 100.61 |
| CCN=CNN=C(c1ccccc1)c1ccccn1 | % kontroly | 91.04 |
| CCNC(=S)NN=C(c1ccccc1)c1ccccn1 | % kontroly | 125.02 |

Which kaspáza 8, % kontroly is listed for CCNC(=O)NN=C(c1ccccc1)c1ccccn1 [E-Bp4eS, 2-benzoylpyridine 4-ethylsemicarbazone] ?
104.70

Taken from paper PMC4604124.
